# protocol details: Cytotoxicity against human RPMI7951 cells assessed as cell survival at 5 uM after 24 hrs by MTT assay relative to control
# Assay type: functional
# assay conditions: RPMI-7951, 24 h, read-out: Survival

smiles text	viability at 5 µM [%]
COc1cc2c(cc1O)N=C[C@@H]1CCCN1C2=O	61.6
COc1ccc(-c2cn(C/C=C\COc3cc4c(cc3OC)C(=O)N3CCC[C@H]3C=N4)nn2)cc1	66.4
COc1cc2c(cc1OC/C=C\Cn1cc(-c3ccccc3OC)nn1)N=C[C@@H]1CCCN1C2=O	75.1
COc1cc2c(cc1OC/C=C\Cn1cc(-c3ccccc3)nn1)N=C[C@@H]1CCCN1C2=O	55.9
COc1cc2c(cc1OC/C=C/Cn1cc(-c3ccccc3)nn1)N=C[C@@H]1CCCN1C2=O	79.1
COc1cccc(-c2cn(C/C=C/COc3cc4c(cc3OC)C(=O)N3CCC[C@H]3C=N4)nn2)c1	87.2
COc1cc2c(cc1OC/C=C/Cn1cc(-c3ccccc3OC)nn1)N=C[C@@H]1CCCN1C2=O	83
COc1ccc(-c2cn(C/C=C/COc3cc4c(cc3OC)C(=O)N3CCC[C@H]3C=N4)nn2)cc1	80.1
COc1cccc(-c2cn(C/C=C\COc3cc4c(cc3OC)C(=O)N3CCC[C@H]3C=N4)nn2)c1	65.3
